molecular target: CYP2B6 (Homo sapiens, UniProt P20813); assay: Recombinant isozyme kinetic assay; conditions: human, recombinant CYP2B6 Supersomes, pH 7.4, Km or S50, hydroxyterbinafine formation, substrate terbinafine
Sequence (P20813 whole entry): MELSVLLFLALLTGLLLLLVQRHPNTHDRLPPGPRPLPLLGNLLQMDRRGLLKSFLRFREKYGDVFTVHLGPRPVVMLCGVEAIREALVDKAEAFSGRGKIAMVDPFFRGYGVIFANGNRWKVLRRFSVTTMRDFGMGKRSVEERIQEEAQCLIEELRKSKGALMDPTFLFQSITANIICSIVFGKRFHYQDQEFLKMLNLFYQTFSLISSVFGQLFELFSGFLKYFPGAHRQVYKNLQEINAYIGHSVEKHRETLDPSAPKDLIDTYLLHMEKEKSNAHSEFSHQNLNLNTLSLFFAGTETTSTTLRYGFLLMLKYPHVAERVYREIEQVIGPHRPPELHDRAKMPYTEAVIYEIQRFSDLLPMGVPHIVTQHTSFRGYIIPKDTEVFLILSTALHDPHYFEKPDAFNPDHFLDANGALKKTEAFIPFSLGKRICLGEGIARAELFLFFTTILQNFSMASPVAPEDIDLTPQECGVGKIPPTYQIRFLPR
ENDPOINT LABEL: Km at 30 min (µM)
One number for each entry, in µM.

Provide measured Km at 30 min value, entry: CN(C/C=C/C#CC(C)(C)C)Cc1cccc2ccccc12
300
